# method description: Vss, volume of distribution at steady state at a dose of 10 mg/kg
# Type: ADME, organism-based
# Set-up: dose 10 mg/kg
# particulars: in vivo, read-out: Vss
measured attribute: Vd
Don't forget the unit after the value.

Task item: Give recorded Vd. CCCCCCCCCN(CCC)C(=O)[C@@H]1OC(C(=O)O)=C[C@H](N)[C@H]1NC(C)=O
Reply: 1.3 L/kg

Task item: Give recorded Vd. CCCN(CCC)C(=O)[C@@H]1OC(C(=O)O)=C[C@H](NC(=N)N)[C@H]1NC(C)=O
Reply: 0.5 L/kg

More entries:
Task item: Give recorded Vd. CCCCCCCCCN(CCC)C(=O)[C@@H]1OC(C(=O)O)=C[C@H](N=C(N)N)[C@H]1NC(C)=O
Reply: 1.2 L/kg

Hey, just so you know, these numbers are from ChEMBL document CHEMBL1131488.
